# Test system: Escherichia coli
# assay-protocol: Antibacterial activity against Escherichia coli INSRA5924 isolates expressing CTX-M-32 and TEM-1B enzymes by agar dilution method
# Type: functional
Listed below: MIC values for each entry.
Please reply with the bare figure in mg/L and do not write the unit itself.

Recorded results for 2 molecules are shown here.
>  <molecule>
C[C@@H](O)[C@H]1C(=O)N2C(C(=O)O)=C(SCCNC=N)C[C@H]12 [IMIPENEM ANHYDROUS]

>  <unit-spec>
mg/L

>  <MIC>
0.125

$$$$
>  <molecule>
CC(C)(O/N=C(\C(=O)N[C@@H]1C(=O)N2C(C(=O)[O-])=C(C[n+]3ccccc3)CS[C@H]12)c1csc(N)n1)C(=O)O

>  <unit-spec>
mg/L

>  <MIC>
16

$$$$

Let us examine a further case.
Observed MIC on Escherichia coli, entry CCN1CCN(C(=O)N[C@@H](C(=O)N[C@@H]2C(=O)N3C(C(=O)O)=C(CSc4nnnn4C)CS[C@H]23)c2ccc(O)cc2)C(=O)C1=O , equals 256
